EC50 reference
- measured_on: SST2 (Homo sapiens, UniProt P30874)
- Sequence (P30874 whole entry): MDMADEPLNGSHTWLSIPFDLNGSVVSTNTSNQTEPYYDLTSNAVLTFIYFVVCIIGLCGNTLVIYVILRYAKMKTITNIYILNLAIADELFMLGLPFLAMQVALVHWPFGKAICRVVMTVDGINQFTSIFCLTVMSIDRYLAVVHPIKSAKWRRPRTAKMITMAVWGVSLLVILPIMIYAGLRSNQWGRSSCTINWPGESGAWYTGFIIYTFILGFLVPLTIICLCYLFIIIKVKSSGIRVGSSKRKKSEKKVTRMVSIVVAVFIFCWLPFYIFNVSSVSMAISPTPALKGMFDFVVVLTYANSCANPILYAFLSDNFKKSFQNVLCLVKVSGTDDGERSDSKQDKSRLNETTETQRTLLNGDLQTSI
- protocol_description: Hit Hunter cAMP XS+ assay, SST2 activation via Gi (reduction of forskolin-stimulated cAMP)
- Type: cell-based
- conditions: reduction of forskolin-stimulated cAMP; 4-parameter logistic fit; read-out: SST2 pEC50 (converted)
*1 amine or outer side, *2 acyl side, *3 side chain or, on linkers, in order; H or OH if unused. Where a SMILES comes first, the peptide text is derived from it. Side-chain parts run from the residue outwards. [ ]: non-standard residue; d: D form. The star is where a group is joined. Ala(piperidin-4-yl) = O=C([C@H](CC1CCN([*:3])CC1)N[*:1])[*:2]; dTrp(5-OMe) = COc1ccc2[nH]cc(C[C@@H](N)C(=O)O)c2c1; Ethylenediamine = C(CN[*:2])N[*:1]; Hyp = O=C(O)[C@@H]1C[C@@H](O)CN1; hPhe = N[C@@H](CCc1ccccc1)C(=O)O; 3Pal = N[C@@H](Cc1cccnc1)C(=O)O; X6 = Clc1cccc(Cl)c1C*; CO = O=C([*:1])[*:2]; Bn = c1ccc(C*)cc1
Unit nM implied. Number only.

NCCNC(=O)O[C@@H]1C[C@H]2C(=O)N[C@@H](CCc3ccccc3)C(=O)N[C@H](Cc3c[nH]c4ccccc34)C(=O)N[C@@H](CC3CCNCC3)C(=O)N[C@@H](Cc3ccc(OCc4c(Cl)cccc4Cl)cc3)C(=O)N[C@@H](Cc3cccnc3)C(=O)N2C1 [Example 47] (cyclo([3Pal][Hyp]([CO-Ethylenediamine])[hPhe][dW][Ala(piperidin-4-yl)]Y(X6))); 200

# input for lookup
Query: Return the recorded EC50 value; entry: COc1ccc2[nH]cc(C[C@H]3NC(=O)[C@H](CCc4ccccc4)NC(=O)[C@@H]4C[C@@H](OC(=O)NCCN)CN4C(=O)[C@H](Cc4cccnc4)NC(=O)[C@H](Cc4ccc(OCc5ccccc5)cc4)NC(=O)[C@H](CC4CCNCC4)NC3=O)c2c1 [Example 39] (cyclo([3Pal][Hyp]([CO-Ethylenediamine])[hPhe][dTrp(5-OMe)][Ala(piperidin-4-yl)]Y(Bn)))
Reply: 398

* * *

- measured_on: SST5 (Homo sapiens, UniProt P35346)
- Sequence (P35346 whole entry): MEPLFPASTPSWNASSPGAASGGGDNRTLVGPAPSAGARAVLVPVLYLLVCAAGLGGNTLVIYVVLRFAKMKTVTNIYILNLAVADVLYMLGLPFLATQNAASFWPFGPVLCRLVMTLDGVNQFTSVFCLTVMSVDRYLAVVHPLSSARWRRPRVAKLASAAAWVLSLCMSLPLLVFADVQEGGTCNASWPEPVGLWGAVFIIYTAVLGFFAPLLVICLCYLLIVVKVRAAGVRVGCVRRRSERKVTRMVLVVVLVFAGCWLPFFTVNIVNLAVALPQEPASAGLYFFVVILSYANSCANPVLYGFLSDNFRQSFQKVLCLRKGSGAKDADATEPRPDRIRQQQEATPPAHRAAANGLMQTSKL
- protocol_description: Hit Hunter cAMP XS+ assay, SST5 activation via Gi (reduction of forskolin-stimulated cAMP)
- Type: cell-based
- conditions: selectivity for SST5 over SST2
*1 amine or outer side, *2 acyl side, *3 side chain or, on linkers, in order; H or OH if unused. Where a SMILES comes first, the peptide text is derived from it. Side-chain parts run from the residue outwards. [ ]: non-standard residue; d: D form. The star is where a group is joined. Ala(piperidin-4-yl) = O=C([C@H](CC1CCN([*:3])CC1)N[*:1])[*:2]; Phe(3-OMe) = COc1cccc(C[C@H](N)C(=O)O)c1; Ethylenediamine = C(CN[*:2])N[*:1]; Hyp = O=C(O)[C@@H]1C[C@@H](O)CN1; hPhe = N[C@@H](CCc1ccccc1)C(=O)O; Phg = N[C@H](C(=O)O)c1ccccc1; CO = O=C([*:1])[*:2]; Bn = c1ccc(C*)cc1
measured_endpoint: SST5/2 Selectivity

Before answering, review these 2 worked examples.
NCCNC(=O)O[C@@H]1C[C@H]2C(=O)N[C@@H](c3ccccc3)C(=O)N[C@H](Cc3c[nH]c4ccccc34)C(=O)N[C@@H](CC3CCNCC3)C(=O)N[C@@H](Cc3ccc(OCc4ccccc4)cc3)C(=O)N[C@@H](Cc3ccccc3)C(=O)N2C1 [Example 1] (cyclo(F[Hyp]([CO-Ethylenediamine])[Phg][dW][Ala(piperidin-4-yl)]Y(Bn))); 130.7
NCCNC(=O)O[C@@H]1C[C@H]2C(=O)N[C@@H](CCc3ccccc3)C(=O)N[C@@H](Cc3c[nH]c4ccccc34)C(=O)N[C@@H](CC3CCNCC3)C(=O)N[C@@H](Cc3ccc(OCc4ccccc4)cc3)C(=O)N[C@@H](Cc3ccccc3)C(=O)N2C1 [Example 29] (cyclo(F[Hyp]([CO-Ethylenediamine])[hPhe]W[Ala(piperidin-4-yl)]Y(Bn))); 663.6

# input for lookup
Query: Return the recorded SST5/2 Selectivity value; entry: COc1cccc(C[C@@H]2NC(=O)[C@H](Cc3ccc(OCc4ccccc4)cc3)NC(=O)[C@H](CC3CCNCC3)NC(=O)[C@@H](Cc3c[nH]c4ccccc34)NC(=O)[C@H](c3ccccc3)NC(=O)[C@@H]3C[C@@H](OC(=O)NCCN)CN3C2=O)c1 [Example 12] (cyclo([Hyp]([CO-Ethylenediamine])[Phg][dW][Ala(piperidin-4-yl)]Y(Bn)[Phe(3-OMe)]))
Reply: 26.1

* * *

EC50 reference
- measured_on: SST2 (Homo sapiens, UniProt P30874)
- protocol_description: Hit Hunter cAMP XS+ assay, SST2 activation via Gi (reduction of forskolin-stimulated cAMP)
- Type: cell-based
- conditions: reduction of forskolin-stimulated cAMP; 4-parameter logistic fit; read-out: SST2 pEC50 (converted)
*1 amine or outer side, *2 acyl side, *3 side chain or, on linkers, in order; H or OH if unused. Where a SMILES comes first, the peptide text is derived from it. Side-chain parts run from the residue outwards. [ ]: non-standard residue; d: D form. The star is where a group is joined. Ala(piperidin-4-yl) = O=C([C@H](CC1CCN([*:3])CC1)N[*:1])[*:2]; dTrp(5-OMe) = COc1ccc2[nH]cc(C[C@@H](N)C(=O)O)c2c1; Ala(piperazin-1-yl) = N[C@@H](CN1CCNCC1)C(=O)O; X7 = NCCOC(=O)N1CCN([*:1])[C@H](C(=O)[*:2])C1; Phe(3-Cl) = N[C@@H](Cc1cccc(Cl)c1)C(=O)O; Morpholine(3S-CO) = O=C(O)[C@@H]1COCCN1; Pro(4,4-F2) = O=C(O)[C@@H]1CC(F)(F)CN1; Ethylenediamine = C(CN[*:2])N[*:1]; d(hPhe) = N[C@H](CCc1ccccc1)C(=O)O; Hyp = O=C(O)[C@@H]1C[C@@H](O)CN1; hPhe = N[C@@H](CCc1ccccc1)C(=O)O; 3Pal = N[C@@H](Cc1cccnc1)C(=O)O; Cyclohexylmethyl = C1CCC(C*)CC1; Tic = O=C(O)[C@@H]1Cc2ccccc2CN1; Benzyl(4-Cl) = Clc1ccc(C*)cc1; Phg = N[C@H](C(=O)O)c1ccccc1; CO = O=C([*:1])[*:2]; Bn = c1ccc(C*)cc1

Query: Return the recorded EC50 value; entry: NCCNC(=O)O[C@@H]1C[C@H]2C(=O)N[C@H](CCc3ccccc3)C(=O)N[C@H](Cc3c[nH]c4ccccc34)C(=O)N[C@@H](CN3CCNCC3)C(=O)N[C@@H](Cc3ccc(OCC4CCCCC4)cc3)C(=O)N[C@@H](Cc3cccnc3)C(=O)N2C1 [Example 71] (cyclo([3Pal][Hyp]([CO-Ethylenediamine])[d(hPhe)][dW][Ala(piperazin-1-yl)]Y(Cyclohexylmethyl)))
Reply: > 10000 nM

Query: Return the recorded EC50 value; entry: COc1ccc2[nH]cc(C[C@H]3NC(=O)[C@H](c4ccccc4)NC(=O)[C@@H]4C[C@@H](OC(=O)NCCN)CN4C(=O)[C@H](Cc4ccccc4)NC(=O)[C@H](Cc4ccc(OCc5ccccc5)cc4)NC(=O)[C@H](CC4CCNCC4)NC3=O)c2c1 [Example 5] (cyclo(F[Hyp]([CO-Ethylenediamine])[Phg][dTrp(5-OMe)][Ala(piperidin-4-yl)]Y(Bn)))
Reply: 316 nM

Query: Return the recorded EC50 value; entry: NCCOC(=O)N1CCN2C(=O)[C@@H]3Cc4ccccc4CN3C(=O)[C@H](Cc3ccc(OCc4ccccc4)cc3)NC(=O)[C@H](CN3CCNCC3)NC(=O)[C@@H](Cc3c[nH]c4ccccc34)NC(=O)[C@H](CCc3ccccc3)NC(=O)[C@@H]2C1 [Example 72] (cyclo([Tic][X7][hPhe][dW][Ala(piperazin-1-yl)]Y(Bn)))
Reply: > 10000 nM

Query: Return the recorded EC50 value; entry: NCCNC(=O)O[C@@H]1C[C@H]2C(=O)N[C@H](CCc3ccccc3)C(=O)N[C@@H](Cc3c[nH]c4ccccc34)C(=O)N[C@@H](CN3CCNCC3)C(=O)N[C@@H](Cc3ccc(OCc4ccccc4)cc3)C(=O)N3Cc4ccccc4C[C@H]3C(=O)N2C1 [Example 35] (cyclo([Hyp]([CO-Ethylenediamine])[d(hPhe)]W[Ala(piperazin-1-yl)]Y(Bn)[Tic]))
Reply: > 10000 nM

Query: Return the recorded EC50 value; entry: NCCNC(=O)O[C@@H]1C[C@H]2C(=O)N[C@@H](CCc3ccccc3)C(=O)N[C@H](Cc3c[nH]c4ccccc34)C(=O)N[C@@H](CN3CCNCC3)C(=O)N[C@@H](Cc3ccc(OCc4ccccc4)cc3)C(=O)N3CC(F)(F)C[C@H]3C(=O)N2C1 [Example 70] (cyclo([Hyp]([CO-Ethylenediamine])[hPhe][dW][Ala(piperazin-1-yl)]Y(Bn)[Pro(4,4-F2)]))
Reply: > 10000 nM

Query: Return the recorded EC50 value; entry: NCCNC(=O)O[C@@H]1C[C@H]2C(=O)N[C@H](CCc3ccccc3)C(=O)N[C@H](Cc3c[nH]c4ccccc34)C(=O)N[C@@H](CN3CCNCC3)C(=O)N[C@@H](Cc3ccc(OCc4ccc(Cl)cc4)cc3)C(=O)N[C@@H](Cc3cccnc3)C(=O)N2C1 [Example 58] (cyclo([3Pal][Hyp]([CO-Ethylenediamine])[d(hPhe)][dW][Ala(piperazin-1-yl)]Y(Benzyl(4-Cl))))
Reply: > 10000 nM

Query: Return the recorded EC50 value; entry: NCCNC(=O)O[C@@H]1C[C@H]2C(=O)N[C@H](CCc3ccccc3)C(=O)N[C@H](Cc3c[nH]c4ccccc34)C(=O)N[C@@H](CN3CCNCC3)C(=O)N[C@@H](Cc3ccc(OCc4ccccc4)cc3)C(=O)N3Cc4ccccc4C[C@H]3C(=O)N2C1 [Example 25] (cyclo([Hyp]([CO-Ethylenediamine])[d(hPhe)][dW][Ala(piperazin-1-yl)]Y(Bn)[Tic]))
Reply: 200 nM

Query: Return the recorded EC50 value; entry: NCCNC(=O)O[C@@H]1C[C@H]2C(=O)N[C@@H](c3ccccc3)C(=O)N[C@H](Cc3c[nH]c4ccccc34)C(=O)N[C@@H](CC3CCNCC3)C(=O)N[C@@H](Cc3ccc(OCc4ccccc4)cc3)C(=O)N[C@@H](Cc3cccc(Cl)c3)C(=O)N2C1 [Example 7] (cyclo([Hyp]([CO-Ethylenediamine])[Phg][dW][Ala(piperidin-4-yl)]Y(Bn)[Phe(3-Cl)]))
Reply: 10 nM

Query: Return the recorded EC50 value; entry: NCCNC(=O)O[C@@H]1C[C@H]2C(=O)N[C@@H](CCc3ccccc3)C(=O)N[C@H](Cc3c[nH]c4ccccc34)C(=O)N[C@@H](CN3CCNCC3)C(=O)N[C@@H](Cc3ccc(OCc4ccccc4)cc3)C(=O)N[C@@H](Cc3cccc(Cl)c3)C(=O)N2C1 [Example 48] (cyclo([Hyp]([CO-Ethylenediamine])[hPhe][dW][Ala(piperazin-1-yl)]Y(Bn)[Phe(3-Cl)]))
Reply: 2 nM

Query: Return the recorded EC50 value; entry: O=C1N[C@@H](Cc2ccc(OCc3ccccc3)cc2)C(=O)N2Cc3ccccc3C[C@H]2C(=O)N2CCOC[C@H]2C(=O)N[C@H](CCc2ccccc2)C(=O)N[C@H](Cc2c[nH]c3ccccc23)C(=O)N[C@H]1CN1CCNCC1 [Example 61] (cyclo([Tic][Morpholine(3S-CO)][d(hPhe)][dW][Ala(piperazin-1-yl)]Y(Bn)))
Reply: > 10000 nM

Query: Return the recorded EC50 value; entry: NCCNC(=O)O[C@@H]1C[C@H]2C(=O)N[C@H](CCc3ccccc3)C(=O)N[C@@H](Cc3c[nH]c4ccccc34)C(=O)N[C@@H](CN3CCNCC3)C(=O)N[C@@H](Cc3ccc(OCc4ccccc4)cc3)C(=O)N[C@@H](Cc3cccnc3)C(=O)N2C1 [Example 33] (cyclo([3Pal][Hyp]([CO-Ethylenediamine])[d(hPhe)]W[Ala(piperazin-1-yl)]Y(Bn)))
Reply: > 10000 nM
